Tested on: giant foxtail (Setaria faberii)
assay: Test A postemergence
Format: in vivo
condition.set: Setaria faberi, post-emergence, 240 h, 125 g ai/ha, postemergence, visual injury rating after approximately 10 d; read-out: Foxtail, Giant plant response rating (0 to 100 scale, 0 no effect, 100 complete control)
Recorded pest or weed control at 125 g/ha by entry
Reply numerically in %, unit not repeated.

chemical.smiles: CCOc1ccc([C@H]2CN(C)C(=O)[C@@H]2C(=O)Nc2ccccc2F)cc1
subject.of.test: giant foxtail (Setaria faberii)
unit.label: %
quantitative.result: 80

Request: What value of pest or weed control at 125 g/ha has been recorded for this entry: O=C1NC[C@H](c2cncc(C(F)(F)F)c2)[C@H]1C(=O)Nc1ccccc1F
Response: 70

Request: # query: pest or weed control at 125 g/ha of entry CN1C[C@H](c2ccc(C(F)(F)F)c(Br)c2)[C@@H](C(=O)Nc2cccc(F)c2F)C1=O
Response: 80

Request: For the compound Cc1cc(C)cc([C@H]2CNC(=O)[C@@H]2C(=O)Nc2ccccc2C(F)(F)F)c1 , what pest or weed control at 125 g/ha is on record?
Response: 40

---

// pest or weed control at 62.5 g/ha lookup, one value per entry
System: ivy-leaved morning glory (Ipomoea hederacea)
assay: Test G Post-Emergence Protocol
Format: in vivo
condition.set: Ipomoea, post-emergence, 312 h, 62.5 g ai/ha, evaluated after 13 days, 100=total damage to plant, 0=no damage to plant, read-out: Morningglory, Ivy-leaved damage rating
Write the numeric value and append its unit.

Example results:
molecule: CCOc1cc(C2CN(C)C(=O)C2C(=O)Nc2cccc(F)c2F)cc(C(F)(F)F)c1 (stereo not drawn)
pest or weed control at 62.5 g/ha: 60%
--
molecule: Cc1ccc([C@H]2CN(C)C(=O)[C@@H]2C(=O)Nc2cccc3c2S(=O)(=O)CC3)cc1 (racemic)
pest or weed control at 62.5 g/ha: 0%
--
molecule: CN1C[C@@H](c2ccc(CF)cc2)[C@H](C(=O)Nc2cccc(F)c2F)C1=O (racemic)
pest or weed control at 62.5 g/ha: 10%
--
molecule: CSc1ncccc1NC(=O)[C@H]1C(=O)N(C)C[C@@H]1c1ccc(C(F)(F)F)cc1 (racemic)
pest or weed control at 62.5 g/ha: 0%
--
molecule: COCCOc1cc([C@@H]2CN(C)C(=O)[C@H]2C(=O)Nc2cccc(F)c2C)ccc1C (racemic)
pest or weed control at 62.5 g/ha: 20%

Request: Could you tell me which pest or weed control at 62.5 g/ha is on file for C=Cc1cccc([C@@H]2CN(C)C(=O)[C@H]2C(=O)Nc2cccc(F)c2F)c1 (racemic) ?
Response: 60%

Request: I'd like to know its pest or weed control at 62.5 g/ha. The molecule in question is CN1C[C@H](c2ccc(C(F)(F)F)cc2)[C@@H](C(=O)Nc2cnccc2C#N)C1=O (racemic)
Response: 0%

Request: Which pest or weed control at 62.5 g/ha reading was recorded for the molecule Cc1cc(C#N)cc(C2CN(C)C(=O)C2C(=O)Nc2cccc(F)c2F)c1 (stereo not drawn) ?
Response: 60%

Request: Can you share its pest or weed control at 62.5 g/ha? I mean this molecule: CN1C[C@H](c2cccc(C(F)(F)F)c2)[C@@H](C(=O)Nc2cccnc2F)C1=O (racemic)
Response: 70%
